Experiment: Clearance in mouse at 20 mg/kg, po administered as single dose
Type: ADME, organism-based
Set-up: dose 20 mg/kg, route oral
Details: in vivo
measure-name: CL/F (L/h/kg)

[I] CNC(=O)c1cc(Oc2ccc3sc(Nc4ccc(C)cc4)nc3c2)ccn1
[II] CCc1ccc(Nc2nc3cc(Oc4ccnc(C(=O)NC)c4)ccc3o2)cc1
Which record shows the lower CL/F: the first, I , or the second, II ? Please identify the chosen entry by its label.
II
(II: 0.0558 L/h/kg, I: 0.846 L/h/kg)

----------
Target: Serine/threonine-protein kinase B-raf (Homo sapiens, UniProt P15056, V600E)
Sequence (P15056 2-766 V600E limits assumed): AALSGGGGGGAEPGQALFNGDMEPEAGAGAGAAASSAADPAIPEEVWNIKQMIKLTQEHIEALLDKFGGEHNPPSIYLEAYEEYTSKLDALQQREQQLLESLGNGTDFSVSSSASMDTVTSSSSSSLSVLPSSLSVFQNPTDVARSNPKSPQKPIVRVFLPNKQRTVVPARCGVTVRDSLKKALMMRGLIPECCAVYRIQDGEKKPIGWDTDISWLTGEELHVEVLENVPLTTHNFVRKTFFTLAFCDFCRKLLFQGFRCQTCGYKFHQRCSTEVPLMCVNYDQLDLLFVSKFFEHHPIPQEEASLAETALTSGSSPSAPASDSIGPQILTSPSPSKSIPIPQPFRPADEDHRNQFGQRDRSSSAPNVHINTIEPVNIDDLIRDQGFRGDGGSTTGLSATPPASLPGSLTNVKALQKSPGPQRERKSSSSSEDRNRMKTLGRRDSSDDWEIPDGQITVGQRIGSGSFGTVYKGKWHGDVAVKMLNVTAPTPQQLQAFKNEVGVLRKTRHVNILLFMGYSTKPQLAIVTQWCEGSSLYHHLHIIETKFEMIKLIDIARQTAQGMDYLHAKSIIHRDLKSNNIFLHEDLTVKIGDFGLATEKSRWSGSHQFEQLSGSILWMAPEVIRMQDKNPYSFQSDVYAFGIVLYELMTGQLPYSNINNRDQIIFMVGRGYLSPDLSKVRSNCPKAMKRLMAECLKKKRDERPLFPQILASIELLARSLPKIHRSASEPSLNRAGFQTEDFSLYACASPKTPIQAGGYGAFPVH
Experiment: Inhibition of B-Raf V599E mutant assessed as phosphorylation of MEK1/2 by ELISA
measure-name: IC50 (nM)

Some compounds with recorded IC50:
CNC(=O)c1cc(Oc2ccc3oc(Nc4ccccc4F)nc3c2)ccn1 :: 580
CNC(=O)c1cc(Oc2ccc3sc(Nc4ccc(Br)cc4)nc3c2)ccn1 :: 7

[I] CNC(=O)c1cc(Oc2ccc3sc(Nc4ccc(C(C)C)cc4)nc3c2)ccn1
[II] CNC(=O)c1cc(Oc2ccc3c(c2)nc(Nc2cccc(C(C)(C)C)c2)n3C)ccn1
Which record shows the lower IC50: the first, I , or the second, II ? Please identify the chosen entry by its label.
I
(I: 19 nM, II: 120 nM)

[1] CNC(=O)c1cc(Oc2ccc3oc(Nc4ccc(Br)cc4)nc3c2)ccn1
[2] CCN1CCN(c2ccc(Nc3nc4cc(Oc5ccnc(C(=O)NC)c5)ccc4o3)cc2)CC1
Which record shows the lower IC50: the first, 1 , or the second, 2 ? Please identify the chosen entry by its label.
1
(1: 25 nM, 2: 17000 nM)

[P] O=C(NCCN1CCOCC1)c1cc(Oc2ccc3sc(Nc4ccc(Br)cc4)nc3c2)ccn1
[Q] CC(C)(C)c1cccc(Nc2nc3cc(Oc4ccnc(C(N)=O)c4)ccc3s2)c1
Which record shows the lower IC50: the first, P , or the second, Q ? Please identify the chosen entry by its label.
Q

----------
Recorded below: IC50, system RAF proto-oncogene serine/threonine-protein kinase (Homo sapiens, UniProt P04049).
measure-name: IC50 (nM)

CCCCc1ccc(Nc2nc3cc(Oc4ccnc(C(=O)NC)c4)ccc3o2)cc1 :: 2

[A] CNC(=O)c1cc(Oc2ccc3oc(Nc4cccc(C(C)(C)C)c4)nc3c2)ccn1
[B] CNC(=O)c1cc(Oc2ccc3oc(Nc4ccc(Br)cc4)nc3c2)ccn1
Which record shows the lower IC50: the first, A , or the second, B ? Please identify the chosen entry by its label.
A
(A: 1 nM, B: 3 nM)

[A] CCN1CCN(c2ccc(Nc3nc4cc(Oc5ccnc(C(=O)NC)c5)ccc4o3)cc2)CC1
[B] CCc1ccccc1Nc1nc2cc(Oc3ccnc(C(=O)NC)c3)ccc2o1
[C] CC(C)(C)c1cccc(Nc2nc3cc(Oc4ccnc(C(N)=O)c4)ccc3s2)c1
[D] CNC(=O)c1cc(Oc2ccc3sc(Nc4ccc(OC(F)(F)F)cc4)nc3c2)ccn1
Sort by IC50, descending. Return the labels ranked in the requested order, please.
A, B, D, C
(A: 7300 nM, B: 110 nM, D: 4 nM, C: 1 nM)

----------
pIC50: −log10 of the molar value.
Recorded below: pIC50, system RAF proto-oncogene serine/threonine-protein kinase (Homo sapiens, UniProt P04049).
measure-name: pIC50

Some molecules with recorded pIC50:
CNC(=O)c1cc(Oc2ccc3sc(Nc4ccc(C(C)C)cc4)nc3c2)ccn1 :: 8.52
CC(C)c1cccc(Nc2nc3cc(Oc4ccnc(C(N)=O)c4)ccc3o2)c1 :: 8.40

[P] CNC(=O)c1cc(Oc2ccc3oc(Nc4ccccc4Cl)nc3c2)ccn1
[Q] CCCCc1ccc(Nc2nc3cc(Oc4ccnc(C(=O)NC)c4)ccc3s2)cc1
Kindly identify which of P and Q has the larger recorded pIC50 value. Please identify the chosen entry by its label.
Q
(Q: 8.05, P: 6.92)

----------
Target: Serine/threonine-protein kinase B-raf (Homo sapiens, UniProt P15056, V600E)
Assay: Inhibition of B-Raf V599E mutant assessed as phosphorylation of MEK1/2 by ELISA
pIC50: −log10 of the molar value.
measure-name: pIC50

CNC(=O)c1cc(Oc2ccc3oc(Nc4ccc(N(C)C)cc4)nc3c2)ccn1 :: 6.89
CNC(=O)c1cc(Oc2ccc3sc(Nc4ccc(C)cc4)nc3c2)ccn1 :: 7.59

[A] CNC(=O)c1cc(Oc2ccc3oc(Nc4ccc(Cl)cc4)nc3c2)ccn1
[B] CNC(=O)c1cc(Oc2ccc3oc(Nc4ccc(Oc5ccccc5)cc4)nc3c2)ccn1
[C] CNC(=O)c1cc(Oc2ccc3oc(Nc4ccccc4Cl)nc3c2)ccn1
Sort by pIC50, descending. Return the labels ranked in the requested order, please.
A, C, B

----------
Molecular target: Serine/threonine-protein kinase B-raf (Homo sapiens, UniProt P15056, V600E)
Experiment: Inhibition of B-Raf V599E mutant assessed as phosphorylation of MEK1/2 by ELISA
measure-name: IC50 (nM)

CNC(=O)c1cc(Oc2ccc3oc(Nc4cccc(C(C)(C)C)c4)nc3c2)ccn1 :: 6

[P] CNC(=O)c1cc(Oc2ccc3oc(Nc4ccc(C(C)C)cc4)nc3c2)ccn1
[Q] CCCCc1ccc(Nc2nc3cc(Oc4ccnc(C(=O)NC)c4)ccc3s2)cc1
[R] CC(C)c1cccc(Nc2nc3cc(Oc4ccnc(C(N)=O)c4)ccc3o2)c1
[S] CNC(=O)c1cc(Oc2ccc3oc(Nc4ccc(OC(F)(F)F)cc4)nc3c2)ccn1
Sort by IC50, descending. Return the labels ranked in the requested order, please.
Q, S, P, R
(Q: 65 nM, S: 12 nM, P: 6 nM, R: 4 nM)

----------
Test: Half life in mouse at 20 mg/kg, po administered as single dose
Assay type: ADME, organism-based
Set-up: dose 20 mg/kg, route oral
Conditions: in vivo
measure-name: half-life (min)

[a] CCc1ccc(Nc2nc3cc(Oc4ccnc(C(=O)NC)c4)ccc3o2)cc1
[b] CNC(=O)c1cc(Oc2ccc3sc(Nc4ccc(C)cc4)nc3c2)ccn1
Kindly identify which of a and b has the larger recorded half-life value. Please identify the chosen entry by its label.
b
(b: 80 min, a: 32 min)

----------
Experiment: Oral bioavailability in mouse at 20 mg/kg administered as single dose
Assay type: ADME, organism-based
Conditions: in vivo
measure-name: bioavailability (%)

[P] CCc1ccc(Nc2nc3cc(Oc4ccnc(C(=O)NC)c4)ccc3o2)cc1
[Q] CNC(=O)c1cc(Oc2ccc3sc(Nc4ccc(C)cc4)nc3c2)ccn1
Which record shows the lower bioavailability: the first, P , or the second, Q ? Please identify the chosen entry by its label.
P
(P: 33%, Q: 90%)

----------
Target: Serine/threonine-protein kinase B-raf (Homo sapiens, UniProt P15056, V600E)
Experiment: Inhibition of BRAF V600E mutant-mediated ERK phosphorylation in human SKMEL-28 cells by immunoblotting method
pEC50: −log10 of the molar value.
measure-name: pEC50

Some compounds with recorded pEC50:
CC(C)(C)c1cccc(Nc2nc3cc(Oc4ccnc(C(N)=O)c4)ccc3s2)c1 :: 5.54
CC(C)c1cccc(Nc2nc3cc(Oc4ccnc(C(N)=O)c4)ccc3o2)c1 :: 5.43
CNC(=O)c1cc(Oc2ccc3oc(Nc4cccc(C(C)(C)C)c4)nc3c2)ccn1 :: 6.00

[1] CNC(=O)c1cc(Oc2ccc3sc(Nc4ccc(C(C)C)cc4)nc3c2)ccn1
[2] CNC(=O)c1cc(Oc2ccc3oc(Nc4ccc(Br)cc4)nc3c2)ccn1
[3] CNC(=O)c1cc(Oc2ccc3oc(Nc4cccc(C(C)C)c4)nc3c2)ccn1
Sort entries by pEC50 from minimum to maximum value. Return the labels ranked in the requested order, please.
2, 1, 3
(2: 5.00, 1: 5.49, 3: 6.00)

[P] CNC(=O)c1cc(Oc2ccc3c(c2)nc(Nc2cccc(C(C)(C)C)c2)n3C)ccn1
[Q] CNC(=O)c1cc(Oc2ccc3sc(Nc4cccc(C(C)(C)C)c4)nc3c2)ccn1
[R] CCc1ccc(Nc2nc3cc(Oc4ccnc(C(=O)NC)c4)ccc3o2)cc1
Sort entries by pEC50 from minimum to maximum value. Return the labels ranked in the requested order, please.
R, Q, P
(R: 5.15, Q: 5.68, P: 6.55)

----------
Target: Serine/threonine-protein kinase B-raf (Homo sapiens, UniProt P15056, V600E)
Assay: Inhibition of B-Raf V599E mutant assessed as phosphorylation of MEK1/2 by ELISA
measure-name: IC50 (nM)

CNC(=O)c1cc(Oc2ccc3sc(Nc4ccc(Cl)cc4)nc3c2)ccn1 :: 15

[A] CCc1ccc(Nc2nc3cc(Oc4ccnc(C(=O)NC)c4)ccc3o2)cc1
[B] CC(C)c1cccc(Nc2nc3cc(Oc4ccnc(C(=O)NCCN5CCOCC5)c4)ccc3o2)c1
[C] CCCCc1ccc(Nc2nc3cc(Oc4ccnc(C(=O)NC)c4)ccc3o2)cc1
[D] CNC(=O)c1cc(Oc2ccc3oc(Nc4cccc(C(F)(F)F)c4)nc3c2)ccn1
Sort entries by IC50 from minimum to maximum value. Return the labels ranked in the requested order, please.
A, C, D, B
